Each entry below lists one item and its recorded PBM binding z-score value.
System: RXRa DBDmut IVT, anti-RXR (DBD mutation: RXRa K156A/R161A, NR concentration 90 nM)
protocol: PBM binding z-score (relative to random genomic background probes); higher = stronger binding; sequences stand for … in GC…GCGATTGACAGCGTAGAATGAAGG
observation.type: PBM binding z-score

INSERT INTO assay_data (sequence_text, observation_type, measurement) VALUES
  ('CTCGAAAGGTCGTGCTCAGGTGAGTACACCAAAC', 'PBM binding z-score', 2.36),
  ('CCTTACGGGTCACTCTAGGTTATAGCATCGGAGT', 'PBM binding z-score', 2),
  ('CTATCTAGGTTAAGGGGGTCATTCAGTTTGAAAG', 'PBM binding z-score', 2.55),
  ('CCGACTGGGGCAACGGTTACCATACTCAGTACGA', 'PBM binding z-score', -0.399),
  ('ATCGAACGGTCGACGAGGTGAGTATACACCGTTT', 'PBM binding z-score', -0.546),
  ('CCGAGTAGGTTACGAGGGGGAATTCAGTGCGAAT', 'PBM binding z-score', 0.572),
  ('ATATGTAGGTTATGGTCATTCAGAAAGTAGGGAA', 'PBM binding z-score', 0.958),
  ('TCGAGTAGCTTACGGGGGCATTCAGGGATGAAGA', 'PBM binding z-score', 1.14),
  ('CAATCTAGGTCACGAAAGGTCAAAGTCGAATGAC', 'PBM binding z-score', 2.58),
  ('TCTAGTTCGTCACGGAGGTCACACACGACGGGTA', 'PBM binding z-score', 2.51),
  ('TAGCCTAGGTCATTCAGGGGCTAGTATAGAAAGC', 'PBM binding z-score', 1.94),
  ('CGAACTAGGTCAAAGGACAGTGATAGGCGACGTA', 'PBM binding z-score', 1.56);

###

Test system: LXRb:RXRa (NR concentration 270 nM, RXRa partner concentration 90 nM)
protocol: PBM binding z-score (relative to random genomic background probes); higher = stronger binding; sequences stand for … in GC…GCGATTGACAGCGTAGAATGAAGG
observation.type: PBM binding z-score

INSERT INTO measurements (sequence_text, observation_type, measurement) VALUES
  ('CGAACTAGGTCACCAGGACTGTGAAGAGGTTGGA', 'PBM binding z-score', 1.59),
  ('CTATGTAGGTTAAGGGGGTCATTAAGTTTGAAAG', 'PBM binding z-score', 5.86),
  ('CCGAGTGGGTTACGAGGGGGCATTCAGTGCGAAT', 'PBM binding z-score', 5.8),
  ('CGTCCAAGGTCATGGGAGGTCAGTGAAGACAGAT', 'PBM binding z-score', 6.35),
  ('CGAACTAGGTCAAATGACAGTGAAAGGCGACGTA', 'PBM binding z-score', 2.29),
  ('CCGAGTAGGTTACGAGGGGGCATTCATTGCGAAT', 'PBM binding z-score', 6.12),
  ('CAAAATAGGTCAAGGTCAAAGTCGGTTTGTGCCA', 'PBM binding z-score', 5.22),
  ('ACTAGTTGCTCAGCTGAGGTCACACACAATTCGG', 'PBM binding z-score', 3.4),
  ('CGTTCAAGGTCATAGGAGGTCAGTGAAGACAGAT', 'PBM binding z-score', 6.52),
  ('CGCACTAGGTCATTGACAGGACAGTGAATAGTAA', 'PBM binding z-score', 2.31),
  ('CCGAGTATGTTACGAGGGGGCATTCAGTGCGAAT', 'PBM binding z-score', 3.9),
  ('TCTCGGATGACACGAAAGGTCAGAGCTCGACATC', 'PBM binding z-score', 3.4),
  ('TTACGAAGGTGAAAGGTCGTTGATGCACGCCTTG', 'PBM binding z-score', 2.75),
  ('CGAACTAGGTCACCAGGACAGTAAAGAGGTTGGA', 'PBM binding z-score', 1.93),
  ('CCGCGTAGGTTACGAGGGGGCATTCAGTGCGAAT', 'PBM binding z-score', 6.37),
  ('ATATGTAGGTTAGGGGCATTCAGAAAGTAGGGAA', 'PBM binding z-score', 3.01);

FYI, the data here is from the supplement of paper PMC6555819.
